TARGET SYSTEM: hSTING(H232) (Homo sapiens, UniProt Q86WV6)
Sequence (Q86WV6 whole entry): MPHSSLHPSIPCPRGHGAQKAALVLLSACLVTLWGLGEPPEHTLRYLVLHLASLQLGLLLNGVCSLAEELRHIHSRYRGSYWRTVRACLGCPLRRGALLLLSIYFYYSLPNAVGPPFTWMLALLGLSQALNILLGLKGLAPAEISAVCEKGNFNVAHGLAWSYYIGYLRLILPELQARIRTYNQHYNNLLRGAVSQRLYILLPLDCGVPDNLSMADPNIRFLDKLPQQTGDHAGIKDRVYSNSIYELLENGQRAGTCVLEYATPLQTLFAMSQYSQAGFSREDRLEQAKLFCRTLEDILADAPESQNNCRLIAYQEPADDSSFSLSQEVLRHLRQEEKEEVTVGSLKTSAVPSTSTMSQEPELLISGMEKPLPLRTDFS
ASSAY INFO: Luciferase reporter assay in HEK293T-hSTING-Luciferase cells, H232/REF polymorph
RUN CONDITIONS: H232/REF polymorph of human STING, EC50 range class
Task for the reader: assign each of the following compounds its reported EC50.

Worked examples, 5 compounds total:
C[C@H]1c2ccc(C(=O)NCc3c(F)cc(F)cc3F)cc2N(Cc2ccc(N)cc2)C(=O)N1C | 1000 to 10000 nM
C[C@H]1c2ccc(C(=O)NCc3c(F)cc(F)cc3F)cc2N(Cc2cc(CO)ccc2F)C(=O)N1C (stereo in doubt) | 1000 to 10000 nM
COc1ccc(F)c(CN2C(=O)N(C)[C@@H](C)c3ccc(C(=O)NCc4c(F)cc(F)cc4F)cc32)c1Cl | < 1000 nM
COc1cnc(C)c(F)c1CN1C(=O)N(C)[C@@H](C)c2ccc(C(=O)NCc3c(F)cc(F)cc3F)cc21 | < 1000 nM
Cc1ncc(Cl)c(CN2C(=O)N(C)[C@@H](C)c3ccc(C(=O)NCc4c(F)cc(F)cc4F)cc32)c1F | < 1000 nM

Please state EC50 for every compound in the list that follows.
1. CC1c2ccc(C(=O)NCc3c(F)cc(F)cc3F)cc2N(Cc2cc(C(N)=O)ccc2F)C(=O)N1C (stereo not shown)
2. Cc1nccc(CN2C(=O)N(C)C(C)c3ccc(C(=O)NCc4c(F)cc(F)cc4F)cc32)c1F (stereo not shown)

Reply |
1: > 10000 nM; 2: < 1000 nM

----------
Task for the reader: assign each of the following compounds its reported EC50.
TARGET SYSTEM: hSTING(R232) (Homo sapiens, UniProt Q86WV6, H232R)
Sequence (Q86WV6 whole entry H232R): as the sequence (Q86WV6 whole entry) above, with H232R counted along it
ASSAY INFO: Luciferase reporter assay in HEK293T-hSTING-Luciferase cells, R232 (wild type) human STING
Assay type: cell-based
RUN CONDITIONS: 20 hr stimulation, read-out: R232 human activity (EC50 range)

Please state EC50 for every compound in the list that follows.
1. COc1ccc(F)c(CN2C(=O)N(C)[C@@H](C)c3ccc(C(=O)NCc4c(F)cc(F)cc4F)cc32)c1F
2. CON1Cc2ccc(C(=O)NCc3c(F)cc(F)cc3F)cc2N(Cc2c(F)cccc2Cl)C1=O
3. C[C@H]1c2ccc(C(=O)NCc3c(F)cc(F)cc3F)cc2N(Cc2c(F)ccc(OP(=O)(O)O)c2Cl)C(=O)N1C

Reply |
< 1000 nM
1000 to 10000 nM
< 1000 nM

Please state EC50 for every compound in the list that follows.
1. CN1Cc2ccc(C(=O)NCc3c(F)cc(F)cc3F)cc2N(Cc2cn3ccccc3n2)C1=O
2. C[C@H]1c2ccc(C(=O)NCc3c(F)cc(F)cc3F)cc2N(Cc2cc(O)c(O)cc2F)C(=O)N1C
3. C[C@H]1c2ccc(C(=O)NCc3c(F)cc(F)cc3F)cc2N(Cc2c(F)cncc2F)C(=O)N1C
4. C[C@H]1c2ccc(C(=O)NCc3c(F)cc(F)cc3F)cc2N(Cc2c(F)cc(OP(=O)(O)O)cc2F)C(=O)N1C

Reply |
1: > 10000 nM; 2: 1000 to 10000 nM; 3: < 1000 nM; 4: < 1000 nM

----------
TARGET SYSTEM: hSTING(R232) (Homo sapiens, UniProt Q86WV6, H232R)
ASSAY INFO: Luciferase reporter assay in HEK293T-hSTING-Luciferase cells, R232 (wild type) human STING
Format: cell-based
RUN CONDITIONS: R232 human activity (EC50 range), 20 hr stimulation
Where a name gives a salt, the structure may show the parent alone.
RESULT TYPE: EC50

Ask | Find the recorded EC50 belonging to CNCCN(C)C(=O)Oc1ccc(F)c(CN2C(=O)N(C)[C@@H](C)c3ccc(C(=O)NCc4c(F)cc(F)cc4F)cc32)c1Cl [Example 300, hydrochloride] and report it.
Reply | < 1000 nM

----------
Task for the reader: assign each of the following compounds its reported pEC50.
TARGET SYSTEM: cynomolgus monkey STING protein (Macaca fascicularis, UniProt A0A2R3XZA6)
Sequence (A0A2R3XZA6 entry or part of it): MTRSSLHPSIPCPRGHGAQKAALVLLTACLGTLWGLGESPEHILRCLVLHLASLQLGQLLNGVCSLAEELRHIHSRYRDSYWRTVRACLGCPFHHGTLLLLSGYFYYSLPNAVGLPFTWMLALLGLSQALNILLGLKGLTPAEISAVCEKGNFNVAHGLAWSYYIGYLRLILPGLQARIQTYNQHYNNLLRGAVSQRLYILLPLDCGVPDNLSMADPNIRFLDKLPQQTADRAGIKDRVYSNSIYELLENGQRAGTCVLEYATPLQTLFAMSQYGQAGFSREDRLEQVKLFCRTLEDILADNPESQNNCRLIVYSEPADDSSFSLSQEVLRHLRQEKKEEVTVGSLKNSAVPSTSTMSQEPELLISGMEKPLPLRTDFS
ASSAY INFO: Luciferase reporter assay, cynomolgus monkey STING overexpressed in HEK293T cells
Type: cell-based
RUN CONDITIONS: cynomolgus monkey STING overexpressed in HEK293T cells; read-out: Cynomolgus monkey STING activity (EC50 range)
pEC50: −log10 of the molar value.

Worked examples, 6 compounds total:
COc1ccc(F)c(F)c1CN1C(=O)N(C)C(C)c2ccc(C(=O)NCc3c(F)cc(F)cc3F)cc21 (centres unmarked) [Example 178] | > 6.00
C[C@H]1c2ccc(C(=O)NCc3c(F)cc(F)cc3F)cc2N(Cc2c(F)cc(O)cc2F)C(=O)N1C [Example 78] | > 6.00
C[C@H]1c2ccc(C(=O)NCc3c(F)cc(F)cc3F)cc2N(Cc2c(F)ccc(OCOP(=O)(O)O)c2Cl)C(=O)N1C [Example 90] | > 6.00
COc1ccc(F)c(CN2C(=O)N(C)C(C)c3ccc(C(=O)NCc4c(F)cc(F)cc4F)cc32)c1 (centres unmarked) [Example 166] | 5.00 to 6.00
C[C@H]1c2ccc(C(=O)NCc3c(F)cc(F)cc3F)cc2N(Cc2c(F)cc(OCCO)cc2F)C(=O)N1C [Example 80] | > 6.00
CC(O)c1ccc(F)c(CN2C(=O)N(C)[C@@H](C)c3ccc(C(=O)NCc4c(F)cc(F)cc4F)cc32)c1F (some centres unmarked) [Example 289] | 5.00 to 6.00

Please state pEC50 for every compound in the list that follows.
1. Cc1ncc(Cl)c(CN2C(=O)N(C)C(C)c3ccc(C(=O)NCc4c(F)cc(F)cc4F)cc32)c1F (centres unmarked) [Example 176]
2. C[C@H]1c2ccc(C(=O)NCc3c(F)cc(F)cc3F)cc2N(Cc2c(F)cc(N)cc2F)C(=O)N1C [Example 286]
3. C[C@H]1c2ccc(C(=O)NCc3c(F)cc(F)cc3F)cc2N(Cc2c(F)cncc2Br)C(=O)N1C [Example 232]

Reply |
1. > 6.00
2. > 6.00
3. > 6.00

----------
TARGET SYSTEM: hSTING(R232) (Homo sapiens, UniProt Q86WV6, H232R)
ASSAY INFO: Luciferase reporter assay in HEK293T-hSTING-Luciferase cells, R232 (wild type) human STING
Type: cell-based
RUN CONDITIONS: 20 hr stimulation, read-out: R232 human activity (EC50 range)
RESULT TYPE: EC50

Worked examples, 3 molecules total:
C[C@H]1c2ccc(C(=O)NCc3c(F)cc(OP(=O)(O)O)cc3F)cc2N(Cc2c(F)cccc2Cl)C(=O)N1C | 1 to 10 µM
CN1Cc2ccc(C(=O)NCc3cc4cc(O)ccc4o3)cc2N(Cc2c(F)cccc2Cl)C1=O | 1 to 10 µM
COc1cc(F)c(CN2C(=O)N(C)C(C)c3ccc(C(=O)NCc4c(F)cc(F)cc4F)cc32)c(F)c1 (stereo not shown) | < 1 µM

Next, consider the following molecule.
Ask | Find the recorded EC50 belonging to Cc1cc(CN2C(=O)N(C)C(C)c3ccc(C(=O)NCc4c(F)cc(F)cc4F)cc32)no1 (stereo not shown) and report it.
Reply | > 10 µM

----------
Task for the reader: assign each of the following compounds its reported pEC50.
TARGET SYSTEM: hSTING(R232) (Homo sapiens, UniProt Q86WV6, H232R)
ASSAY INFO: Luciferase reporter assay in HEK293T-hSTING-Luciferase cells, R232 (wild type) human STING
Type: cell-based
RUN CONDITIONS: 20 hr stimulation, read-out: R232 human activity (EC50 range)
pEC50: −log10 of the molar value.

Please state pEC50 for every compound in the list that follows.
1. C[C@H]1c2ccc(C(=O)NCc3c(O)cccc3F)cc2N(Cc2c(F)cccc2Cl)C(=O)N1C [Example 251]
2. CN1Cc2ccc(C(=O)NCc3ccc4ccoc4c3)cc2N(Cc2c(F)cccc2Cl)C1=O [Example 52]
3. CN1Cc2ccc(C(=O)NCc3c(F)cc(F)cc3F)cc2N(Cc2c(F)cccc2Cl)C1=O [Example 5]
4. C[C@H]1c2ccc(C(=O)NCc3c(F)cc(F)cc3F)cc2N(Cc2c(F)ccc(CO)c2F)C(=O)N1C [Example 269]
5. CN1Cc2ccc(C(=O)NCc3c(F)cc(F)cc3F)cc2N(Cc2c(F)cccc2C(F)(F)F)C1=O [Example 56]

Reply |
1. 5.00 to 6.00
2. 5.00 to 6.00
3. > 6.00
4. > 6.00
5. 5.00 to 6.00

Please state pEC50 for every compound in the list that follows.
1. C[C@H]1c2ccc(C(=O)NCc3ccc(F)cc3OCCO)cc2N(Cc2c(F)cccc2Cl)C(=O)N1C [Example 284]
2. CC1c2ccc(C(=O)NCc3c(F)cc(F)cc3F)cc2N(Cc2c(F)cc(F)cc2OC(F)(F)F)C(=O)N1C (stereo not shown) [Example 210]

Reply |
1: < 5.00; 2: > 6.00
